viability, T/C values by entry
# Tested on: 953936-095-R-J2-PDC spheroids with HUVEC/MSC, viability
# measurement-description: Anticancer human tumor 953936-095-R-J2-PDC patient-derived cervical squamous cell carcinoma cell line growth inhibition [PI3K]
# run-conditions: second compound 0.1 µM; first compound 0.001 µM; active compounds read low
measurement-kind: viability, T/C (%)

INSERT INTO results (compound, tested_target, measured_number) VALUES
  ('Cn1ncnc1[C@H]1c2n[nH]c(=O)c3cc(F)cc(c23)N[C@@H]1c1ccc(F)cc1 + Cc1nc(NC(=O)N2CCCC2C(N)=O)sc1-c1ccnc(C(C)(C)C(F)(F)F)c1', '953936-095-R-J2-PDC spheroids with HUVEC/MSC, viability', 79.2),
  ('CC(=O)c1c(C)c2cnc(Nc3ccc(N4CCNCC4)cn3)nc2n(C2CCCC2)c1=O + CC(Nc1ncnc2nc[nH]c12)c1cc2cccc(Cl)c2c(=O)n1-c1ccccc1', '953936-095-R-J2-PDC spheroids with HUVEC/MSC, viability', 96.4),
  ('CC(C)n1nc(-c2ccc3oc(N)nc3c2)c2c(N)ncnc21 + CC(Nc1ncnc2nc[nH]c12)c1cc2cccc(Cl)c2c(=O)n1-c1ccccc1', '953936-095-R-J2-PDC spheroids with HUVEC/MSC, viability', 95),
  ('Cn1ncnc1[C@H]1c2n[nH]c(=O)c3cc(F)cc(c23)N[C@@H]1c1ccc(F)cc1 + CC(Nc1ccc2c(c1)OCCn1cc(N3C(=O)OCC3C(F)F)nc1-2)C(N)=O', '953936-095-R-J2-PDC spheroids with HUVEC/MSC, viability', 56),
  ('CC(C)n1nc(-c2ccc3oc(N)nc3c2)c2c(N)ncnc21 + Cc1nc(NC(=O)N2CCCC2C(N)=O)sc1-c1ccnc(C(C)(C)C(F)(F)F)c1', '953936-095-R-J2-PDC spheroids with HUVEC/MSC, viability', 74.6),
  ('Cn1ncnc1[C@H]1c2n[nH]c(=O)c3cc(F)cc(c23)N[C@@H]1c1ccc(F)cc1 + CC(Nc1ncnc2nc[nH]c12)c1cc2cccc(Cl)c2c(=O)n1-c1ccccc1', '953936-095-R-J2-PDC spheroids with HUVEC/MSC, viability', 99.3);

---

# System: 953936-095-R-J2-PDC spheroids with HUVEC/MSC, viability
# measurement-description: Anticancer human tumor 953936-095-R-J2-PDC cell line growth inhibition [PI3K];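 note: spheroids exposed to compounds for seven days before read-out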
# run-conditions: second compound 3.16 µM; first compound 10 µM; active compounds read low
measurement-kind: viability, T/C (%)

INSERT INTO results (compound, unit_descriptor, measured_number) VALUES
  ('C=CC(=O)N1CCN(c2nc(=O)n(-c3c(C)ccnc3C(C)C)c3nc(-c4c(O)cccc4F)c(F)cc23)C(C)C1 (configuration not stated) + Cc1nc(NC(=O)N2CCCC2C(N)=O)sc1-c1ccnc(C(C)(C)C(F)(F)F)c1', '%', 26.1),
  ('CC1(C)CCC(Nc2ncc(C(F)(F)F)c(-c3c[nH]c4c(P(C)(C)=O)c(C#N)ccc34)n2)CN1 (configuration not stated) + CC(Nc1ncnc2nc[nH]c12)c1cc2cccc(Cl)c2c(=O)n1-c1ccccc1', '%', 3.11),
  ('CCCS(=O)(=O)Nc1ccc(F)c(C(=O)c2c[nH]c3ncc(-c4ccc(Cl)cc4)cc23)c1F + Cc1nc(NC(=O)N2CCCC2C(N)=O)sc1-c1ccnc(C(C)(C)C(F)(F)F)c1', '%', 1.4),
  ('CNC(=O)c1ccc(N2C(=S)N(c3ccc(C#N)c(C(F)(F)F)c3)C(=O)C2(C)C)cc1F + CC(Nc1ncnc2nc[nH]c12)c1cc2cccc(Cl)c2c(=O)n1-c1ccccc1', '%', 61.2),
  ('Cn1nccc1Nc1nccc(-c2ccn(C(CO)c3ccc(Cl)c(F)c3)c(=O)c2)n1 (configuration not stated) + Cc1nc(NC(=O)N2CCCC2C(N)=O)sc1-c1ccnc(C(C)(C)C(F)(F)F)c1', '%', 10.8),
  ('CC1(C)CCC(CN2CCN(c3ccc(C(=O)NS(=O)(=O)c4ccc(NCC5CCOCC5)c([N+](=O)[O-])c4)c(Oc4cnc5[nH]ccc5c4)c3)CC2)=C(c2ccc(Cl)cc2)C1 + CC(Nc1ncnc2nc[nH]c12)c1cc2cccc(Cl)c2c(=O)n1-c1ccccc1', '%', 39.2),
  ('CC1(C)CCC(CN2CCN(c3ccc(C(=O)NS(=O)(=O)c4ccc(NCC5CCOCC5)c([N+](=O)[O-])c4)c(Oc4cnc5[nH]ccc5c4)c3)CC2)=C(c2ccc(Cl)cc2)C1 + Cc1nc(NC(=O)N2CCCC2C(N)=O)sc1-c1ccnc(C(C)(C)C(F)(F)F)c1', '%', 20.4),
  ('C[C@@H](NC(=O)c1ncnc(N)c1Cl)c1ncc(C(=O)Nc2cc(C(F)(F)F)c(Cl)cn2)s1 + CC(Nc1ncnc2nc[nH]c12)c1cc2cccc(Cl)c2c(=O)n1-c1ccccc1', '%', 79.8),
  ('CC(C)NCC(C(=O)N1CCN(c2ncnc3c2C(C)CC3O)CC1)c1ccc(Cl)cc1 (configuration not stated) + CC(Nc1ncnc2nc[nH]c12)c1cc2cccc(Cl)c2c(=O)n1-c1ccccc1', '%', 12.7),
  ('Cn1nccc1Nc1nccc(-c2ccn(C(CO)c3ccc(Cl)c(F)c3)c(=O)c2)n1 (configuration not stated) + CC(Nc1ncnc2nc[nH]c12)c1cc2cccc(Cl)c2c(=O)n1-c1ccccc1', '%', 77.3),
  ('C[C@@H](NC(=O)c1ncnc(N)c1Cl)c1ncc(C(=O)Nc2cc(C(F)(F)F)c(Cl)cn2)s1 + Cc1nc(NC(=O)N2CCCC2C(N)=O)sc1-c1ccnc(C(C)(C)C(F)(F)F)c1', '%', 27.4),
  ('C=CC(=O)N1CCN(c2nc(=O)n(-c3c(C)ccnc3C(C)C)c3nc(-c4c(O)cccc4F)c(F)cc23)C(C)C1 (configuration not stated) + CC(Nc1ncnc2nc[nH]c12)c1cc2cccc(Cl)c2c(=O)n1-c1ccccc1', '%', 105),
  ('CNC(=O)c1ccc(N2C(=S)N(c3ccc(C#N)c(C(F)(F)F)c3)C(=O)C2(C)C)cc1F + Cc1nc(NC(=O)N2CCCC2C(N)=O)sc1-c1ccnc(C(C)(C)C(F)(F)F)c1', '%', 24.8),
  ('CC(C)NCC(C(=O)N1CCN(c2ncnc3c2C(C)CC3O)CC1)c1ccc(Cl)cc1 (configuration not stated) + Cc1nc(NC(=O)N2CCCC2C(N)=O)sc1-c1ccnc(C(C)(C)C(F)(F)F)c1', '%', 5.35),
  ('C#Cc1c(F)ccc2cc(O)cc(-c3ncc4c(N5CC6CCC(C5)N6)nc(OCC56CCCN5CC(F)C6)nc4c3F)c12 (configuration not stated) + Cc1nc(NC(=O)N2CCCC2C(N)=O)sc1-c1ccnc(C(C)(C)C(F)(F)F)c1', '%', 10.1),
  ('CC1(C)CCC(Nc2ncc(C(F)(F)F)c(-c3c[nH]c4c(P(C)(C)=O)c(C#N)ccc34)n2)CN1 (configuration not stated) + Cc1nc(NC(=O)N2CCCC2C(N)=O)sc1-c1ccnc(C(C)(C)C(F)(F)F)c1', '%', 0.46),
  ('Cn1ncc(Cl)c1-c1cc(C(=O)NC(CN)Cc2cccc(F)c2)sc1Cl (configuration not stated) + Cc1nc(NC(=O)N2CCCC2C(N)=O)sc1-c1ccnc(C(C)(C)C(F)(F)F)c1', '%', 4.61),
  ('C#Cc1c(F)ccc2cc(O)cc(-c3ncc4c(N5CC6CCC(C5)N6)nc(OCC56CCCN5CC(F)C6)nc4c3F)c12 (configuration not stated) + CC(Nc1ncnc2nc[nH]c12)c1cc2cccc(Cl)c2c(=O)n1-c1ccccc1', '%', 42.6),
  ('CC(Cn1ccc(-c2ccc(C#N)c(Cl)c2)n1)NC(=O)c1cc(C(C)O)[nH]n1 (configuration not stated) + CC(Nc1ncnc2nc[nH]c12)c1cc2cccc(Cl)c2c(=O)n1-c1ccccc1', '%', 70.7),
  ('Cn1ncc(Cl)c1-c1cc(C(=O)NC(CN)Cc2cccc(F)c2)sc1Cl (configuration not stated) + CC(Nc1ncnc2nc[nH]c12)c1cc2cccc(Cl)c2c(=O)n1-c1ccccc1', '%', 8.95),
  ('CC(Cn1ccc(-c2ccc(C#N)c(Cl)c2)n1)NC(=O)c1cc(C(C)O)[nH]n1 (configuration not stated) + Cc1nc(NC(=O)N2CCCC2C(N)=O)sc1-c1ccnc(C(C)(C)C(F)(F)F)c1', '%', 28.4),
  ('CCCS(=O)(=O)Nc1ccc(F)c(C(=O)c2c[nH]c3ncc(-c4ccc(Cl)cc4)cc23)c1F + CC(Nc1ncnc2nc[nH]c12)c1cc2cccc(Cl)c2c(=O)n1-c1ccccc1', '%', 1.48);

---

# Test system: 953936-095-R-J2-PDC spheroids with HUVEC/MSC, viability
# measurement-description: Anticancer human tumor 953936-095-R-J2-PDC cell line growth inhibition [PI3K];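 note: spheroids exposed to compounds for seven days before read-out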
# run-conditions: second compound 0.01 µM; first compound 3.16 µM; active compounds read low
measurement-kind: viability, T/C (%)

INSERT INTO results (compound, tested_target, measurement_kind, measured_number) VALUES
  ('CCCS(=O)(=O)Nc1ccc(F)c(C(=O)c2c[nH]c3ncc(-c4ccc(Cl)cc4)cc23)c1F + COc1c(OCCCN2CCOCC2)ccc2c3n(c(=NC(=O)c4cnc(N)nc4)nc12)CCN3', '953936-095-R-J2-PDC spheroids with HUVEC/MSC, viability', 'viability, T/C', 74.5),
  ('CNC(=O)c1ccc(N2C(=S)N(c3ccc(C#N)c(C(F)(F)F)c3)C(=O)C2(C)C)cc1F + CC(Nc1ccc2c(c1)OCCn1cc(N3C(=O)OCC3C(F)F)nc1-2)C(N)=O', '953936-095-R-J2-PDC spheroids with HUVEC/MSC, viability', 'viability, T/C', 90.5),
  ('Cn1nccc1Nc1nccc(-c2ccn(C(CO)c3ccc(Cl)c(F)c3)c(=O)c2)n1 (stereo not drawn) + CC(Nc1ccc2c(c1)OCCn1cc(N3C(=O)OCC3C(F)F)nc1-2)C(N)=O', '953936-095-R-J2-PDC spheroids with HUVEC/MSC, viability', 'viability, T/C', 78.8);
